// provenance: paper PMC11542720

List of µeff9.1 values.
# test_details: Capillary electrophoresis, effective electrophoretic mobility (acetone as EOF marker)
# Type: physicochemical
# conditions_used: pH 9.1; I = 25 mmol/L, 11 kV, 25 °C, three replicates
Structures can show the parent of a compound that is named as a salt.
endpoint_name: µeff9.1

compound	result
COc1ccccc1OCCNCC(O)COc1cccc2[nH]c3ccccc3c12 (centres unmarked)	1.693 ± 0.071 10^-5 cm^2 V^-1 s^-1
Nc1nc(N)c2nc(-c3ccccc3)c(N)nc2n1	0.000 ± 0.000 10^-5 cm^2 V^-1 s^-1
c1ccc2c(CC3=NCCN3)cccc2c1 [Naphazoline, naphazoline hydrochloride]	24.643 ± 0.049 10^-5 cm^2 V^-1 s^-1
c1cc2c(c(NC3=NCCN3)c1)CCCC2 [Tramazoline, Tramazoline hydrochloride]	23.713 ± 0.031 10^-5 cm^2 V^-1 s^-1
C1COC(NC(C2CC2)C2CC2)=N1 [Rilmenidine, rilmenidine hemifumarate]	14.065 ± 0.214 10^-5 cm^2 V^-1 s^-1
COc1cc2nc(N3CCN(C(=O)C4COc5ccccc5O4)CC3)nc(N)c2cc1OC (centres unmarked)	0.000 ± 0.000 10^-5 cm^2 V^-1 s^-1
Clc1ccc2nsnc2c1NC1=NCCN1 [Tizanidine, tizanidine hydrochloride]	0.000 ± 0.000 10^-5 cm^2 V^-1 s^-1
CCC1(C2=NCCN2)Cc2ccccc2O1 (centres unmarked) [Efaroxan, efaroxan hydrochloride]	16.361 ± 0.178 10^-5 cm^2 V^-1 s^-1
Clc1cccc(Cl)c1N=C1NCCN1 [Clonidine, Clonidine hydrochloride]	2.575 ± 0.060 10^-5 cm^2 V^-1 s^-1
Cc1cc2c(s1)Nc1ccccc1N=C2N1CCN(C)CC1	1.241 ± 0.029 10^-5 cm^2 V^-1 s^-1
CCOc1ccccc1OCCN[C@H](C)Cc1ccc(OC)c(S(N)(=O)=O)c1 [Tamsulosin, tamsulosin hydrochloride]	2.472 ± 0.133 10^-5 cm^2 V^-1 s^-1
CN[C@@H](C)[C@H](O)c1ccccc1 [Ephedrine, ephedrine hydrochloride]	18.047 ± 0.070 10^-5 cm^2 V^-1 s^-1
Cc1nccc2c1[nH]c1ccccc12	0.000 ± 0.000 10^-5 cm^2 V^-1 s^-1
Brc1c(NC2=NCCN2)ccc2nccnc12 [Brimonidine, brimonidine hydrochloride]	0.000 ± 0.000 10^-5 cm^2 V^-1 s^-1
CN[C@@H](C)[C@@H](O)c1ccccc1 [Pseudoephedrine, pseudoephedrine hydrochloride]	9.299 ± 0.058 10^-5 cm^2 V^-1 s^-1
COc1ccc2c(c1)[nH]c1c(C)nccc12 [Harmine, harmine hydrochloride]	1.305 ± 0.124 10^-5 cm^2 V^-1 s^-1
CC1Cc2ccccc2N1NC(=O)c1ccc(Cl)c(S(N)(=O)=O)c1 (centres unmarked) [Indapamide, indapamide]	-10.382 ± 0.053 10^-5 cm^2 V^-1 s^-1
c1ccc2c(c1)CCCC2C1=NCCN1 (centres unmarked) [Tetrahydrozoline, tetrahydrozoline hydrochloride]	25.047 ± 0.066 10^-5 cm^2 V^-1 s^-1
Cc1cc(C(C)(C)C)cc(C)c1CC1=NCCN1 [Xylometazoline, xylometazoline hydrochloride]	20.627 ± 0.015 10^-5 cm^2 V^-1 s^-1
CNCCCC12CCC(c3ccccc31)c1ccccc12 [Maprotiline, maprotiline hydrochloride]	19.402 ± 0.148 10^-5 cm^2 V^-1 s^-1
Cc1cc(C(C)(C)C)c(O)c(C)c1CC1=NCCN1 [Oxymetazoline, oxymetazoline hydrochloride]	19.556 ± 0.076 10^-5 cm^2 V^-1 s^-1
COc1nc(C)nc(Cl)c1N=C1NCCN1 [Moxonidine, moxonidine hydrochloride]	0.000 ± 0.000 10^-5 cm^2 V^-1 s^-1
CNC[C@H](O)c1cccc(O)c1 [Phenilephrine, Phenilephrine hydrochloride]	8.661 ± 0.036 10^-5 cm^2 V^-1 s^-1
N=C(N)NC(=O)Cc1c(Cl)cccc1Cl [Guanfacine, guanfacine hydrochloride]	0.000 ± 0.000 10^-5 cm^2 V^-1 s^-1
CN1CCN(C2=Nc3cc(Cl)ccc3Nc3ccccc32)CC1	0.000 ± 0.000 10^-5 cm^2 V^-1 s^-1
N=C(N)NC(=O)c1nc(Cl)c(N)nc1N [Amiloride, Amiloride hydrochloride]	6.416 ± 0.022 10^-5 cm^2 V^-1 s^-1
CN1CCN2c3ccccc3Cc3ccccc3C2C1 (centres unmarked) [Mianserin, mianserin hydrochloride]	0.000 ± 0.000 10^-5 cm^2 V^-1 s^-1
c1ccc2c(c1)OCC(C1=NCCN1)O2 (centres unmarked) [Idazoxan, idazoxan hydrochloride]	6.627 ± 0.102 10^-5 cm^2 V^-1 s^-1
C[C@@H]1CCC[C@H](C)N1NC(=O)c1ccc(Cl)c(S(N)(=O)=O)c1 [Clopamide, clopamide]	-9.640 ± 0.053 10^-5 cm^2 V^-1 s^-1

====

# test_details: RP-HPLC retention on XTerra RP18, methanol/buffer; extrapolated retention factor log kw and slope S
# Type: physicochemical
# conditions_used: pH 9.1; intercept, extrapolated to 100 % buffer; methanol/buffer, 25 °C
Where a name gives a salt, the structure may show the parent alone.
endpoint_name: log kw

molecule	result
Nc1nc(N)c2nc(-c3ccccc3)c(N)nc2n1	1.93
CN[C@@H](C)[C@H](O)c1ccccc1 [Ephedrine, ephedrine hydrochloride]	1.01
Cc1nccc2c1[nH]c1ccccc12	2.78
Clc1ccc2nsnc2c1NC1=NCCN1 [Tizanidine, tizanidine hydrochloride]	1.34
N=C(N)NC(=O)Cc1c(Cl)cccc1Cl [Guanfacine, guanfacine hydrochloride]	2.00
Cc1cc2c(s1)Nc1ccccc1N=C2N1CCN(C)CC1	3.28
CNCCCC12CCC(c3ccccc31)c1ccccc12 [Maprotiline, maprotiline hydrochloride]	3.09
N=C(N)NC(=O)c1nc(Cl)c(N)nc1N [Amiloride, Amiloride hydrochloride]	0.98
c1ccc2c(c1)CCCC2C1=NCCN1 (stereo not drawn) [Tetrahydrozoline, tetrahydrozoline hydrochloride]	1.32

====

# test_details: Capillary electrophoresis, effective electrophoretic mobility (acetone as EOF marker)
# Assay type: physicochemical
# conditions_used: pH 4.4; I = 25 mmol/L, 11 kV, 25 °C, three replicates
Structures can show the parent of a compound that is named as a salt.
endpoint_name: µeff4.4

compound	endpoint_name	result
Cc1nccc2c1[nH]c1ccccc12 [Harman, harmane]	µeff4.4	28.192 ± 0.016 10^-5 cm^2 V^-1 s^-1
Cc1cc(C(C)(C)C)cc(C)c1CC1=NCCN1 [Xylometazoline, xylometazoline hydrochloride]	µeff4.4	21.032 ± 0.019 10^-5 cm^2 V^-1 s^-1
CN1CCN2c3ccccc3Cc3ccccc3C2C1 (centres unmarked) [Mianserin, mianserin hydrochloride]	µeff4.4	22.471 ± 0.004 10^-5 cm^2 V^-1 s^-1
c1ccc2c(c1)CCCC2C1=NCCN1 (centres unmarked) [Tetrahydrozoline, tetrahydrozoline hydrochloride]	µeff4.4	25.680 ± 0.049 10^-5 cm^2 V^-1 s^-1
CN[C@@H](C)[C@@H](O)c1ccccc1 [Pseudoephedrine, pseudoephedrine hydrochloride]	µeff4.4	26.633 ± 0.043 10^-5 cm^2 V^-1 s^-1
COc1cc2nc(N3CCN(C(=O)C4COc5ccccc5O4)CC3)nc(N)c2cc1OC (centres unmarked) [Doxazosin, doxazosin mesilat]	µeff4.4	15.795 ± 0.013 10^-5 cm^2 V^-1 s^-1
Cc1cc(C(C)(C)C)c(O)c(C)c1CC1=NCCN1 [Oxymetazoline, oxymetazoline hydrochloride]	µeff4.4	20.276 ± 0.040 10^-5 cm^2 V^-1 s^-1
COc1nc(C)nc(Cl)c1N=C1NCCN1 [Moxonidine, moxonidine hydrochloride]	µeff4.4	22.669 ± 0.104 10^-5 cm^2 V^-1 s^-1

====

# test_details: RP-HPLC retention on XTerra RP18, methanol/buffer; extrapolated retention factor log kw and slope S
# Assay type: physicochemical
# conditions_used: pH 9.1; slope of log k vs methanol volume fraction
Structures can show the parent of a compound that is named as a salt.
Classification field: true (1) = S (slope) at or over -3; false (0) = S (slope) under -3.

molecule	label_class
CCOc1ccccc1OCCN[C@H](C)Cc1ccc(OC)c(S(N)(=O)=O)c1 [Tamsulosin, tamsulosin hydrochloride]	false (0)
N=C(N)NC(=O)c1nc(Cl)c(N)nc1N [Amiloride, Amiloride hydrochloride]	true (1)
Cc1cc(C(C)(C)C)cc(C)c1CC1=NCCN1 [Xylometazoline, xylometazoline hydrochloride]	false (0)
Cc1cc2c(s1)Nc1ccccc1N=C2N1CCN(C)CC1 [Olanzapine, olanzapine]	false (0)
CN1CCN(C2=Nc3cc(Cl)ccc3Nc3ccccc32)CC1 [Clozapine, clozapine]	false (0)
c1cc2c(c(NC3=NCCN3)c1)CCCC2 [Tramazoline, Tramazoline hydrochloride]	false (0)
COc1cc2nc(N3CCN(C(=O)C4COc5ccccc5O4)CC3)nc(N)c2cc1OC (centres unmarked) [Doxazosin, doxazosin mesilat]	false (0)
c1ccc2c(c1)OCC(C1=NCCN1)O2 (centres unmarked) [Idazoxan, idazoxan hydrochloride]	true (1)
